# Test system: HCC-827
# Procedure text: relative viability (nuclei count vs DMSO), 5 days (fraction); higher = more cells survive
# Protocol conditions: first compound 0.02 µM
Readout type: relative viability
# output: bare number, no unit

Report measured relative viability; entry is CN1CCN(CCOc2cc(OC3CCOCC3)c3c(Nc4c(Cl)ccc5c4OCO5)ncnc3c2)CC1 [Saracatinib] + Cc1cc(Nc2cc(N3CCN(C)CC3)nc(Sc3ccc(NC(=O)C4CC4)cc3)n2)n[nH]1 [Tozasertib] (partner 0.1 µM)
0.404

Look up and report measured relative viability for this entry: CN1CCN(CCOc2cc(OC3CCOCC3)c3c(Nc4c(Cl)ccc5c4OCO5)ncnc3c2)CC1 [Saracatinib] + CS(=O)(=O)CCNCc1ccc(-c2ccc3ncnc(Nc4ccc(OCc5cccc(F)c5)c(Cl)c4)c3c2)o1 [Lapatinib] (partner 2 µM)
0.174

Report relative viability for CN1CCN(CCOc2cc(OC3CCOCC3)c3c(Nc4c(Cl)ccc5c4OCO5)ncnc3c2)CC1 [Saracatinib] + CC(C)C[C@H](NC(=O)[C@H](Cc1ccccc1)NC(=O)c1cnccn1)B(O)O [Bortezomib] (partner 0.002 µM)
0.965

Provide one value: measured relative viability of CCNC(=O)c1noc(-c2cc(C(C)C)c(O)cc2O)c1-c1ccc(CN2CCOCC2)cc1 [Luminespib] + N=C(N)NC(=N)NCCc1ccccc1 [Phenformin] (partner 250 µM)
0.369

Values were extracted from the supplement of paper PMC10307832.
